- procedure details: Selectivity ratio of IC50 for antiproliferative activity against spontaneous remission leukemia cell line (unknown origin) to IC50 for cytotoxicity against human PBMC cells
- Format: toxicity, cell-based
- experimental setup: read-out: Ratio IC50
measured property: selectivity ratio
Give your answer as a number; write no unit.

(Q) Reported selectivity ratio, compound "COc1ccc(C2(SCCNCc3cc(N(C)C)ccn3)c3ccccc3C=Cc3ccccc32)cc1" : ____
(A) 25

----------
- procedure details: Cytotoxicity against human PBMC cells assessed as cell viability incubated for 2 days by MTT assay
- Assay type: toxicity, cell-based
measured property: IC50 at 2 days

(Q) Reported IC50 at 2 days, molecule "COc1ccc(C2(SCCNCc3cc(N(C)C)ccn3)c3ccccc3C=Cc3ccccc32)cc1" : ____
(A) > 1000 nM

----------
- System: Panel NCI-60 (60 carcinoma cell lines)
- procedure details: Antiproliferative activity against human Panel NCI-60 (60 carcinoma cell lines) cells assessed as decrease in cell count incubated for 48 hrs by SRB assay
- Assay type: functional
measured property: LC50 (50% net cell kill)

Completed entries (count: 5):
COc1ccc(C2(SCCNCc3cc(N(C)C)ccn3)c3ccccc3C=Cc3ccccc32)cc1 :: ≥ 0.72 µM
CN(C)c1ccnc(CNCCSC2(c3ccc(C(F)(F)F)cc3)c3ccccc3C=Cc3ccccc32)c1 :: ≥ 10 µM
Cc1ccc(C(SCCNCc2cc(N(C)C)ccn2)(c2ccccc2)c2ccccc2)cc1 :: ≥ 4.65 µM
CCN(CC)c1ccnc(CNCCSC(c2ccccc2)(c2ccccc2)c2ccc(OC)cc2)c1 :: ≥ 5.59 µM
CCN(CC)c1ccnc(CNCCSC(c2ccccc2)(c2ccccc2)c2ccc(C)cc2)c1 :: ≥ 5.59 µM

(Q) Reported LC50 (50% net cell kill), molecule "CN(C)c1ccnc(CNCCSC2(c3ccc(C(F)(F)F)cc3)c3ccccc3CCc3ccccc32)c1" : ____
(A) ≥ 4.77 µM

(Q) Query "CN(C)c1ccnc(CNCCSC2(c3ccccc3)c3ccccc3C=Cc3ccccc32)c1" next
(A) ≥ 2.17 µM

(Q) Query "COc1ccc(C(SCCNCc2cc(N(C)C)ccn2)(c2ccccc2)c2ccccc2)cc1" next
(A) ≥ 1.82 µM

----------
- procedure details: Cytotoxicity against human PBMC cells assessed as cell viability at 10 uM incubated for 2 days by MTT assay relative to control
- Format: toxicity, cell-based
- experimental setup: time 2 day, read-out: Activity
measured property: viability at 48 h, 10 µM (%)
Field: numeric (%). Do not append units.

(Q) Reported viability at 48 h, 10 µM, molecule "COc1ccc(C2(SCCNCc3cc(N(C)C)ccn3)c3ccccc3C=Cc3ccccc32)cc1" : ____
(A) 16.2

----------
Attribute: pIC50
- target under test: NAD-dependent protein deacetylase sirtuin-2 (Homo sapiens, UniProt Q8IXJ6)
- Sequence (Q8IXJ6 whole entry): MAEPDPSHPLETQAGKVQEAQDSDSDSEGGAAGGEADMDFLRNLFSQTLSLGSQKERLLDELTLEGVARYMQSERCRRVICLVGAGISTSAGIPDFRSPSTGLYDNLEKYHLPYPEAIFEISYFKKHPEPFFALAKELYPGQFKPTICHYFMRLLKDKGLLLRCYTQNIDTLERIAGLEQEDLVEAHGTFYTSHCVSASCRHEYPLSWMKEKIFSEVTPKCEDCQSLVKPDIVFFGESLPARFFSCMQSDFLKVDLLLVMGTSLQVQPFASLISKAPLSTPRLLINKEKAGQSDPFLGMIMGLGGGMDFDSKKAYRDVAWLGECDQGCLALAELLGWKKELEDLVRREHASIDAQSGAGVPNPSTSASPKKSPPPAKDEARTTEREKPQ
- procedure details: Inhibition of recombinant SIRT2 (unknown origin) deacetylase activity using Ac-RHKK(Ac)-MCA as substrate incubated for 60 mins in presence of NAD by fluorogenic assay
Reminder that pIC50 means the negative base-10 logarithm of the concentration expressed in mol/L.

Completed entries (count: 10):
CN(C)c1ccnc(CNCCSC2(c3ccc(C(F)(F)F)cc3)c3ccccc3CCc3ccccc32)c1 :: 4.30
CCN(CC)c1ccnc(CNCCSC(c2ccccc2)(c2ccccc2)c2ccc(OC)cc2)c1 :: 4.85
CN(C)c1ccnc(CNCCCSC(c2ccccc2)(c2ccccc2)c2ccccc2)c1 :: 4.58
CN(C)c1ccnc(CNCCSC2(c3ccccc3)c3ccccc3CCc3ccccc32)c1 :: 4.97
COc1ccc(C2(SCCNCc3cc(N(C)C)ccn3)c3ccccc3CCc3ccccc32)cc1 :: 5.06
CCN(CC)c1ccnc(CNCCc2cn(C(c3ccccc3)(c3ccccc3)c3ccccc3)cn2)c1 :: 4.81
COc1ccc(C2(SCCNCc3cc(N(C)C)ccn3)c3ccccc3C=Cc3ccccc32)cc1 :: 5.25
CN(C)c1ccnc(CNCCc2cn(C(c3ccccc3)(c3ccccc3)c3ccccc3)cn2)c1 :: 5.06
CCN(CC)c1ccnc(CNCCSC(c2ccccc2)(c2ccccc2)c2ccc(C)cc2)c1 :: 4.56
CN(C)c1ccnc(CNCCSC2(c3ccccc3)c3ccccc3C=Cc3ccccc32)c1 :: 4.92

(Q) Reported pIC50, compound CCN(CC)c1ccnc(CNC(Cc2cn(C(c3ccccc3)(c3ccccc3)c3ccccc3)cn2)C(=O)OC)c1 (stereo not given) : ____
(A) 5.12

(Q) Query "COc1ccc(C(SCCNCc2cc(N(C)C)ccn2)(c2ccccc2)c2ccccc2)cc1" next
(A) 4.91

(Q) Query "Cc1ccc(C(SCCNCc2cc(N(C)C)ccn2)(c2ccccc2)c2ccccc2)cc1" next
(A) 5.00

----------
- procedure details: Cytotoxicity against human PBMC cells assessed as cell viability at 1 uM incubated for 2 days by MTT assay relative to control
- Type: toxicity, cell-based
- experimental setup: time 2 day, read-out: Activity
measured property: viability at 48 h, 1 µM (%)
Field: numeric (%). Do not append units.

(Q) Reported viability at 48 h, 1 µM, compound "COc1ccc(C2(SCCNCc3cc(N(C)C)ccn3)c3ccccc3C=Cc3ccccc32)cc1" : ____
(A) 84.9

Source: ChEMBL document CHEMBL5500335
